Molecular target: T1, dog MT1-MMP hemopexin domain (dog, UniProt A0A8I3MND9 318-511)
T1 construct: domain: hemopexin domain
Experiment: FP competition, dog MT1-MMP hemopexin domain
Protocol: Subsequently, the non-fluorescent competitor bicyclic peptide (usually just the bicycle core sequence) is titrated, such that it displaces the fluorescent tracer from the target protein. The displacement of the tracer is measured and associated with a drop in fluorescence polarisation. The drop in fluorescence polarisation is proportional to the fraction of target protein bound with the non-fluorescent titrant, and thus is a measure of the affinity of titrant to target protein.

BINDER | Kd / nM
GXACYNEFGCEDFYDIC (not fully specified; Sar x10 in the spacer; 3 Cys cyclised with TBMB, also called G-Sar10-A-(17-69-07) (non-stabilised with spacer)) [17-69-07-N219] | 0.9
